B1: library; numbered along this chain (parent)
chain: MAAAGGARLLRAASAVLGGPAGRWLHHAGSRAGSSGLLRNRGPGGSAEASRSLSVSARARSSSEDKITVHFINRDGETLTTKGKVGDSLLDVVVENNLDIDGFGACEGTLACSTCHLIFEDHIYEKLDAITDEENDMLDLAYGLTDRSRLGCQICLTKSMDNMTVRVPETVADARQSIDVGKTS

Variants of: B1
Assay: scaled log2 fold change in cell abundance, elesclomol vs control (0 = silent mean, 1 = nonsense mean) (scaled log2 ratio); higher = higher viability under elesclomol (loss of FDX1 cuproptosis function);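 also: variant abundance is its share of total variant reads in each endpoint sample, from next-generation sequencing of the integrated ORF PCR-amplified out of genomic DNA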
Conditions: with ABC1 FDX1 KO; elesclomol 5 nM; glucose 10 mM; 14 days
Param threshold (0.01) applies to scaled log2 fold change; output yes when value >= threshold, no when value < threshold.

1) V69R; yes
2) E95Y; no
3) E95R; no
4) S34P; no
5) A15P; yes
6) G104Q; yes
7) K158R; yes
8) K84A; no
9) S30C; yes
10) V165T; yes
11) C112K; yes
12) P43G; yes
13) L98A; no
14) L79S; yes
15) G36E; yes
16) R175D; yes
17) S184C; yes
18) R41S; no
